The measured values listed here are drawn from the kinase profiling compilation of Christmann-Franck et al. (2016).

Catalogue of kinase still bound, per cent of control readings, one per entry.
- assay system: EPHA7 (human)
- assay protocol: KINOMEscan competition binding
- condition parameters: compound 10.0 µM
quantity: kinase still bound, per cent of control (%)

[
  {
    "smiles": "COc1cc(C(=O)NC2CCN(C)CC2)ccc1Nc1ncc2c(n1)N(C1CCCC1)CCC(=O)N2C(C)C",
    "measure unit": "%",
    "observed value": 100
  },
  {
    "smiles": "O=C(O)c1ccc(Nc2ncc3c(n2)-c2ccc(Cl)cc2C(c2c(F)cccc2F)=NC3)cc1",
    "measure unit": "%",
    "observed value": 8.8
  },
  {
    "smiles": "Nc1ccc(-c2ccc3ncc4ccc(=O)n(-c5cccc(C(F)(F)F)c5)c4c3c2)cn1",
    "measure unit": "%",
    "observed value": 100
  },
  {
    "smiles": "O=C1Nc2ccc(I)cc2/C1=C/c1cc(Br)c(O)c(Br)c1",
    "measure unit": "%",
    "observed value": 100
  },
  {
    "smiles": "CCN1CCN(Cc2ccc(Nc3ncc4c(n3)N(C)c3ccccc3C(=O)N4C)cc2C(F)(F)F)CC1",
    "measure unit": "%",
    "observed value": 100
  },
  {
    "smiles": "Cc1cc([C@@H](C)Nc2ccccc2C(=O)O)c2nc(N3CCOCC3)cc(=O)n2c1",
    "measure unit": "%",
    "observed value": 89
  }
]
